Catalogue of Binding to HSA readings, one per entry.
# EXPERIMENTAL SYSTEM: human serum albumin (HSA) (Homo sapiens, UniProt P02768)
# Construct: purchased H13H-2433
# Sequence (P02768 25-609): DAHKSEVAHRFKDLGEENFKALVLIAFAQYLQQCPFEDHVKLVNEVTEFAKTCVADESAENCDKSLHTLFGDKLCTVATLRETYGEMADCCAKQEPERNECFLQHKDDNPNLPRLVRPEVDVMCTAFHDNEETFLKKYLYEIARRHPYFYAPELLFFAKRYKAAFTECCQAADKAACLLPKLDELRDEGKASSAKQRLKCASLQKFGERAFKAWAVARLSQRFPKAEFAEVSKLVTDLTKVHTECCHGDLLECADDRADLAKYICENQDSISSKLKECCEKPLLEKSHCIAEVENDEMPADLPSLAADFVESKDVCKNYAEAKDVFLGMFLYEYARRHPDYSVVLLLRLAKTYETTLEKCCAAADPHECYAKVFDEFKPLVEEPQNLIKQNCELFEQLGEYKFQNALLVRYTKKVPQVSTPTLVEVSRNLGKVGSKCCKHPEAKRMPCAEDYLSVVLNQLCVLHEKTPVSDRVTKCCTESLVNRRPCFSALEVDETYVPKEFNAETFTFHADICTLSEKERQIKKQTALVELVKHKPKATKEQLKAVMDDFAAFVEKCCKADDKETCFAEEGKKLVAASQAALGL
# METHOD: Binding to HSA on a Chiralpak HSA column
# Format: in vitro ADME
# CONDITIONS USED: calibration with nine reference substances
*1 amine or outer side, *2 acyl side, *3 side chain or, on linkers, in order; H or OH if unused. Where a SMILES comes first, the peptide text is derived from it. Side-chain parts run from the residue outwards. [ ]: non-standard residue; d: D form. The star is where a group is joined. X1 = O=C(O)CC[C@H](NC(=O)N[C@@H](CCC(=O)N[C@H](CCCN*)C(=O)O)C(=O)O)C(=O)O; Benzoyl(4-SiFtBu2) = CC(C)(C)[Si](F)(c1ccc(C(=O)*)cc1)C(C)(C)C; γGlu = O=C(O)[C@H](CCC(=O)[*:2])N[*:1]; Suc = O=C(CCC(=O)[*:2])[*:1]; dOrn = NCCC[C@@H](N)C(=O)O; dDap = NC[C@@H](N)C(=O)O; CO = O=C([*:1])[*:2]

COMPOUND: CC(C)(C)[Si](F)(c1ccc(C(=O)NC[C@@H](NC(=O)[C@@H](CCC(=O)O)NC(=O)CC[C@H](NC(=O)N[C@@H](CCC(=O)O)C(=O)O)C(=O)O)C(=O)N[C@H](CCCCNC(=O)CCC(=O)NCCC[C@@H](NC(=O)CC[C@H](NC(=O)N[C@@H](CCC(=O)O)C(=O)O)C(=O)O)C(=O)O)C(=O)O)cc1)C(C)(C)C
Binding to HSA: ≥99.0%
//
COMPOUND: CC(C)(C)[Si](F)(c1ccc(C(=O)NC[C@@H](NC(=O)[C@@H](CCCN)NC(=O)[C@@H](CCC(=O)O)NC(=O)[C@H](N)CCC(=O)O)C(=O)N[C@H](CCCCNC(=O)CCC(=O)NCCC[C@@H](NC(=O)CC[C@H](NC(=O)N[C@@H](CCC(=O)O)C(=O)O)C(=O)O)C(=O)O)C(=O)O)cc1)C(C)(C)C [SiFA-PSMA ligand 03 e] (H-[dE][dE][dOrn][dDap](Benzoyl(4-SiFtBu2))[dK]([Suc-X1])-OH)
Binding to HSA: 97.5%

Switching to the query record.
## Input Which Binding to HSA reading was recorded for the compound CC(C)(C)[Si](F)(c1ccc(C(=O)NC[C@@H](NC(=O)CNC(=O)CNC(=O)CNC(=O)CC[C@H](NC(=O)N[C@@H](CCC(=O)O)C(=O)O)C(=O)O)C(=O)N[C@H](CCCCNC(=O)CCC(=O)NCCC[C@@H](NC(=O)CC[C@H](NC(=O)N[C@@H](CCC(=O)O)C(=O)O)C(=O)O)C(=O)O)C(=O)O)cc1)C(C)(C)C [SiFA-PSMA ligand 02 e] ({Glu-CO-γGlu}-GGG[dDap](Benzoyl(4-SiFtBu2))[dK]([Suc-X1])-OH) ?
## Output ≥98.9%

---

# METHOD: n-Octanol-PBS partition coefficient (logD7.4)
# Format: physicochemical
# CONDITIONS USED: 18F-labeled ligand; n-octanol/PBS pH=7.4; mean ± SD (n = 5)
*1 amine or outer side, *2 acyl side, *3 side chain or, on linkers, in order; H or OH if unused. Where a SMILES comes first, the peptide text is derived from it. Side-chain parts run from the residue outwards. [ ]: non-standard residue; d: D form. The star is where a group is joined. X1 = O=C(O)CC[C@H](NC(=O)N[C@@H](CCC(=O)N[C@H](CCCN*)C(=O)O)C(=O)O)C(=O)O; Benzoyl(4-SiFtBu2) = CC(C)(C)[Si](F)(c1ccc(C(=O)*)cc1)C(C)(C)C; Suc = O=C(CCC(=O)[*:2])[*:1]; dDap = NC[C@@H](N)C(=O)O
PARAMETER: logD7.4
Format: numeric value only, no unit, no commentary.

Some solved entries appear below for comparison.
COMPOUND: CC(C)(C)[Si](F)(c1ccc(C(=O)NC[C@@H](NC(=O)[C@@H](CCCN)NC(=O)CC[C@H](NC(=O)N[C@@H](CCC(=O)O)C(=O)O)C(=O)O)C(=O)N[C@H](CCCCNC(=O)CCC(=O)NCCC[C@@H](NC(=O)CC[C@H](NC(=O)N[C@@H](CCC(=O)O)C(=O)O)C(=O)O)C(=O)O)C(=O)O)cc1)C(C)(C)C
logD7.4: −3.65
//
COMPOUND: CC(C)(C)[Si](F)(c1ccc(C(=O)NC[C@@H](NC(=O)[C@@H](CCCCN)NC(=O)[C@@H](CCC(=O)O)NC(=O)[C@H](N)CCC(=O)O)C(=O)N[C@H](CCCCNC(=O)CCC(=O)NCCC[C@@H](NC(=O)CC[C@H](NC(=O)N[C@@H](CCC(=O)O)C(=O)O)C(=O)O)C(=O)O)C(=O)O)cc1)C(C)(C)C [SiFA-PSMA ligand 03 f] (H-[dE][dE][dK][dDap](Benzoyl(4-SiFtBu2))[dK]([Suc-X1])-OH)
logD7.4: −3.43

## Input What does the record list as logD7.4 for "CC(C)(C)[Si](F)(c1ccc(C(=O)NC[C@@H](NC(=O)[C@@H](CCCNC(N)=O)NC(=O)CC[C@H](NC(=O)N[C@@H](CCC(=O)O)C(=O)O)C(=O)O)C(=O)N[C@H](CCCCNC(=O)CCC(=O)NCCC[C@@H](NC(=O)CC[C@H](NC(=O)N[C@@H](CCC(=O)O)C(=O)O)C(=O)O)C(=O)O)C(=O)O)cc1)C(C)(C)C" ?
## Output −3.28

## Input Look at this compound and give its reported logD7.4. "CC(C)(C)[Si](F)(c1ccc(C(=O)NC[C@@H](NC(=O)CNC(=O)[C@@H](CCC(=O)O)NC(=O)[C@H](N)CCC(=O)O)C(=O)N[C@H](CCCCNC(=O)CCC(=O)NCCC[C@@H](NC(=O)CC[C@H](NC(=O)N[C@@H](CCC(=O)O)C(=O)O)C(=O)O)C(=O)O)C(=O)O)cc1)C(C)(C)C"
## Output −3.56

---

# METHOD: n-Octanol-PBS partition coefficient (logD7.4)
# Assay type: physicochemical
# CONDITIONS USED: 18F-labeled ligand; n-octanol/PBS pH=7.4; mean ± SD (n = 5)
PARAMETER: logD7.4
Give a plain numeric answer without units written out.

## Input Item "CC(C)(C)[Si](F)(c1ccc(C(=O)N[C@H](CC(=O)N[C@H](CCCCNC(=O)CCC(=O)NCCC[C@@H](NC(=O)CC[C@H](NC(=O)N[C@@H](CCC(=O)O)C(=O)O)C(=O)O)C(=O)O)C(=O)O)C(=O)N[C@H](CCCCNC(=O)CCC(=O)NCCC[C@@H](NC(=O)CC[C@H](NC(=O)N[C@@H](CCC(=O)O)C(=O)O)C(=O)O)C(=O)O)C(=O)O)cc1)C(C)(C)C" has what recorded logD7.4?
## Output −3.77

---

Recorded logD7.4 by entry
# METHOD: n-Octanol-PBS partition coefficient (logD7.4)
# Type: physicochemical
# CONDITIONS USED: 18F-labeled ligand; n-octanol/PBS pH=7.4; mean ± SD (n = 5)
*1 amine or outer side, *2 acyl side, *3 side chain or, on linkers, in order; H or OH if unused. Where a SMILES comes first, the peptide text is derived from it. Side-chain parts run from the residue outwards. [ ]: non-standard residue; d: D form. The star is where a group is joined. X1 = O=C(O)CC[C@H](NC(=O)N[C@@H](CCC(=O)N[C@H](CCCN*)C(=O)O)C(=O)O)C(=O)O; Benzoyl(4-SiFtBu2) = CC(C)(C)[Si](F)(c1ccc(C(=O)*)cc1)C(C)(C)C; Suc = O=C(CCC(=O)[*:2])[*:1]; dOrn = NCCC[C@@H](N)C(=O)O; dDap = NC[C@@H](N)C(=O)O
Format: numeric value only, no unit, no commentary.

Worked cases, answers included:
COMPOUND: CC(C)(C)[Si](F)(c1ccc(C(=O)NC[C@@H](NC(=O)[C@@H](CN)NC(=O)CC[C@H](NC(=O)N[C@@H](CCC(=O)O)C(=O)O)C(=O)O)C(=O)N[C@H](CCCCNC(=O)CCC(=O)NCCC[C@@H](NC(=O)CC[C@H](NC(=O)N[C@@H](CCC(=O)O)C(=O)O)C(=O)O)C(=O)O)C(=O)O)cc1)C(C)(C)C [SiFA-PSMA ligand 01 e]
PARAMETER: logD7.4
OBS VALUE: −3.96
//
COMPOUND: CC(C)(C)[Si](F)(c1ccc(C(=O)N[C@H](CC(=O)N[C@H](CC(=O)NCCC[C@@H](NC(=O)c2cc(C(=O)O)cc(C(=O)O)c2)C(=O)NCCCC[C@@H](NC(=O)CC[C@H](NC(=O)N[C@@H](CCC(=O)O)C(=O)O)C(=O)O)C(=O)O)C(=O)O)C(=O)N[C@H](CC(=O)NCCC[C@@H](NC(=O)c2cc(C(=O)O)cc(C(=O)O)c2)C(=O)NCCCC[C@@H](NC(=O)CC[C@H](NC(=O)N[C@@H](CCC(=O)O)C(=O)O)C(=O)O)C(=O)O)C(=O)O)cc1)C(C)(C)C [SiFA-PSMA ligand 07]
PARAMETER: logD7.4
OBS VALUE: −3.45

Please look at the following compound next.
## Input Quick one: logD7.4 of CC(C)(C)[Si](F)(c1ccc(C(=O)NC[C@@H](NC(=O)[C@@H](CCCN)NC(=O)[C@@H](CCC(=O)O)NC(=O)[C@H](N)CCC(=O)O)C(=O)N[C@H](CCCCNC(=O)CCC(=O)NCCC[C@@H](NC(=O)CC[C@H](NC(=O)N[C@@H](CCC(=O)O)C(=O)O)C(=O)O)C(=O)O)C(=O)O)cc1)C(C)(C)C [SiFA-PSMA ligand 03 e] (H-[dE][dE][dOrn][dDap](Benzoyl(4-SiFtBu2))[dK]([Suc-X1])-OH) ?
## Output −3.40

Values compiled from patent US12576169B2.
